All figures here come from patent US20250215104A1.

- assayed_target: T1, human soluble urokinase plasminogen activator receptor (hsuPAR) (human, UniProt Q03405 23-303, limits assumed)
- T1 construct: also called human suPAR; rhuPAR-His
- T1 sequence (Q03405 23-303 limits assumed): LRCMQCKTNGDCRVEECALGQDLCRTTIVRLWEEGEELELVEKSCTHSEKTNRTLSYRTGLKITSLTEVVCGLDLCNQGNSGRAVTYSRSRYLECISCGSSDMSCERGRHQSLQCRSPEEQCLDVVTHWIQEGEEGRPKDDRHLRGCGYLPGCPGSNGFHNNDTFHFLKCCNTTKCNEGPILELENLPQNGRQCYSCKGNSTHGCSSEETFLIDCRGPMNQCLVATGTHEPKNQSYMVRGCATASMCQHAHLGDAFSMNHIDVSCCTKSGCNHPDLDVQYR
- measurement_notes: off-rate screen of scFv clones (kdis), Octet BLI
reported_property: koff (s⁻¹)
Give bare numbers, in s⁻¹.

Some solved entries appear below for comparison.
suPAR_DB04_D04 (scFv, V domains shown, scFv clone from phage display) VH: QVQLVQSGAEVKKPGASVKVSCKASGYTIKDYYMHWVRQAPGQGLEWMGWIDHENGSTIYAQKFQGRVTMTRDTSTSTVYMELSSLRSEDTAVYYCARGYDVDWFVYWGQGTLVTVSS VL: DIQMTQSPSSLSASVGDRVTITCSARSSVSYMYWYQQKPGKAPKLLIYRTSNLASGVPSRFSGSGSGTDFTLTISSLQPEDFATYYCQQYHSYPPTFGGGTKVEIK
0.00188
suPAR_DB04_F06 (scFv, V domains shown, scFv clone from phage display) VH: QVQLVQSGAEVKKPGASVKVSCKASGYTFTGYYMHWVRQAPGQGLEWMGWIDHENGNTSYAQKFQGRVTMTRDTSTSTVYMELSSLRSEDTAVYYCARGYDVDWFVYWGQGTLVTVSS VL: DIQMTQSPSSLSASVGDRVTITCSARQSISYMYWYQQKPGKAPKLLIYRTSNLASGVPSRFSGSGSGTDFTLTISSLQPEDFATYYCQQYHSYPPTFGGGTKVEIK
0.00279
suPAR_DB04_D09 (scFv, V domains shown, scFv clone from phage display) VH: QVQLVQSGAEVKKPGASVKVSCKASGYTFTAYYMHWVRQAPGQGLEWMGWIDHENGNTIYDQKFQGRVTMTRDTSTSTVYMELSSLRSEDTAVYYCARGYDVDWFVYWGQGTLVTVSS VL: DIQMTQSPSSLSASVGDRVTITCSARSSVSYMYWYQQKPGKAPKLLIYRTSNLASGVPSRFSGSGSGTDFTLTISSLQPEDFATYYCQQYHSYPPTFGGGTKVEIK
0.00203
suPAR_DB04_G03 (scFv, V domains shown, scFv clone from phage display) VH: QVQLVQSGAEVKKPGASVKVSCKASGYTFTGYYMHWVRQAPGQGLEWMGWIDHENGNTIYDQKFQGRVTMTRDTSTSTVYMELSSLRSEDTAVYYCARGYDVDWFVYWGQGTLVTVSS VL: DIQMTQSPSSLSASVGDRVTITCSASSSVSYMYWYQQKPGKAPKLLIYRTSNLQSGVPSRFSGSGSGTDFTLTISSLQPEDFATYYCQQYHSYPPTFGGGTKVEIK
0.00119
suPAR_DB04_E10 (scFv, V domains shown, scFv clone from phage display) VH: QVQLVQSGAEVKKPGASVKVSCKASGYTFSSYYFHWVRQAPGQGLEWMGWIDPNTGDTIYAQKFQGRVTMTRDTSTSTVYMELSSLRSEDTAVYYCARGYDVDWFVYWGQGTLVTVSS VL: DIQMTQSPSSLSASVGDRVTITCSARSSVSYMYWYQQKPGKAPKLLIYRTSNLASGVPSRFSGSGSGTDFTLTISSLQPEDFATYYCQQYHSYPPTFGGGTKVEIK
0.00116

Count: 3. Required value per item: koff.
1. suPAR_DB04_E11 (scFv, V domains shown, scFv clone from phage display) VH: QVQLVQSGAEVKKPGASVKVSCKASGYTFTNYYVHWVRQAPGQGLEWMGWIDHENGNTIYDQKFQGRVTMTRDTSTSTVYMELSSLRSEDTAVYYCARGYDVDWFVYWGQGTLVTVSS VL: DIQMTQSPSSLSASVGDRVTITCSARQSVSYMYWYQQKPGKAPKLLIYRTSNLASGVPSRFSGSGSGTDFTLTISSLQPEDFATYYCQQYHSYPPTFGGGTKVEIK
2. suPAR_DB04_G04 (scFv, V domains shown, scFv clone from phage display) VH: QVQLVQSGAEVKKPGASVKVSCKASGYSFTSYYIHWVRQAPGQGLEWMGWIDHENGSTIYAQKFQGRVTMTRDTSTSTVYMELSSLRSEDTAVYYCARGYDVDWFVYWGQGTLVTVSS VL: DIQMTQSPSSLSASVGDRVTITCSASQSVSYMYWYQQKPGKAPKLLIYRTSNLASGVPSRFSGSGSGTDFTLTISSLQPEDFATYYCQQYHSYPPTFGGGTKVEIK
3. suPAR_DB04_C06 (scFv, V domains shown, scFv clone from phage display) VH: QVQLVQSGAEVKKPGASVKVSCKASGYTFSAYYIHWVRQAPGQGLEWMGWIDHENGNTIYDQKFQGRVTMTRDTSTSTVYMELSSLRSEDTAVYYCARGNDVDWFVYWGQGTLVTVSS VL: DIQMTQSPSSLSASVGDRVTITCSARQSVSYMYWYQQKPGKAPKLLIYRTSNLQSGVPSRFSGSGSGTDFTLTISSLQPEDFATYYCQQYHSYPPTFGGGTKVEIK

1. 0.00502
2. 0.000751
3. 0.00412
